# Species: Cavia porcellus
# assay.procedure: Percent inhibition of SRS-A induced contraction minus percent inhibition of 25 mM KCl induced contractions at a conc of 50(uM)
# Type: functional

- compound: "O=S(=O)(NS(=O)(=O)N1CCc2ccccc21)N1CCc2ccccc21"
  Inhibition, %: -13
- compound: "O=S(=O)(NC1CCCC[C@@H]1c1ccccc1)NS(=O)(=O)NC1CCCC[C@H]1c1ccccc1 (stereo not given in full)"
  Inhibition, %: 41
- compound: "O=S(=O)(NS(=O)(=O)N1CCc2ccccc2CC1)N1CCc2ccccc2CC1"
  Inhibition, %: 14
- compound: "O=S(=O)(NS(=O)(=O)N1CCc2cc(Cl)ccc2C1)N1CCc2cc(Cl)ccc2C1"
  Inhibition, %: 1
- compound: "O=S(=O)(NC1Cc2ccccc2C1)NS(=O)(=O)NC1Cc2ccccc2C1"
  Inhibition, %: 11

The reported measurements were obtained from ChEMBL document CHEMBL1121957.
